Origin of values: PubChem BioAssay AID220

Test system: CD8F1 mice, subcutaneous mammary adenocarcinoma, T/C%
Test: NCI In Vivo Anticancer Drug Screen. Data for tumor model Mammary Adenocarcinoma CD8F1 (subcutaneous) in CD8F1
Details: endpoint: median tumor weight (est.); dose: 400.0 mg/kg/injection; schedule: Q07DX005 (ip); vehicle: saline; higher = larger tumour
Results filed as inconclusive are left out.
Property name: T/C

Below are worked cases with known answers.
Nc1nc(=O)n(C2OC(CO)C(O)C2O)cc1F (configuration not stated) ... 34 % of control
Cc1ccccc1N(CC1CO1)CC1CO1 (configuration not stated) ... 63 % of control
O=C(O)CC(NC(=O)CP(=O)(O)O)C(=O)O (configuration not stated) ... 9 % of control
NC(=O)NO ... 48 % of control
N#C[C@H](OC1OC(COC2OC(CO)C(O)C(O)C2O)C(O)C(O)C1O)c1ccccc1 (some centres not stated) ... 83 % of control

OCC1OC(n2cnc3c(Cl)ncnc32)C(O)C1O (configuration not stated) yielded T/C of 115 % of control

`CN(C)C=O` yielded T/C of 105 % of control

N=c1ccn2c(n1)OC1C(O)C(CO)OC12 (configuration not stated) yielded T/C of 22 % of control

`C[C@@H](CN1CC(=O)NC(=O)C1)N1CC(=O)NC(=O)C1` yielded T/C of 45 % of control

`c1cc2n(n1)CCN2` yielded T/C of 46 % of control

`COc1cc(C[C@H]2c3cc(OC)c(OC)cc3CCN2C)c(Oc2cc3c(cc2OC)-c2c(OC)c(OC)cc4c2[C@H](C3)N(C)CC4)cc1OC` yielded T/C of 67 % of control

`Cl` yielded T/C of 48 % of control

---

Test system: CD8F1 mice, subcutaneous mammary adenocarcinoma, T/C%
Assay: NCI In Vivo Anticancer Drug Screen. Data for tumor model Mammary Adenocarcinoma CD8F1 (subcutaneous) in CD8F1
Settings: endpoint: median tumor weight change; dose: 31.25 mg/kg/injection; schedule: Q01DX001 (ip); vehicle: saline; higher = larger tumour
Records with an inconclusive call do not appear.
Catalogue of molecules with associated T/C

`CCCC(=O)O` yielded T/C of 97 % of control

`COc1cc(NCCCCCCCNC(C)C)c2nccc(C)c2c1` yielded T/C of 70 % of control

`CCC(C(=O)O)C(=O)O.[NH2-].[NH2-].[Pt+2]` yielded T/C of 87 % of control

`COc1ccc(C(=O)C(CN(C)C)CN(C)C)cc1` yielded T/C of 84 % of control

---

Test system: CD8F1 mice, subcutaneous mammary adenocarcinoma, T/C%
Test: NCI In Vivo Anticancer Drug Screen. Data for tumor model Mammary Adenocarcinoma CD8F1 (subcutaneous) in CD8F1
Conditions: endpoint: median tumor weight (est.); dose: 6.25 mg/kg/injection; schedule: Q07DX005 (ip); vehicle: saline; higher = larger tumour
Inconclusive results are not listed.
Property name: T/C

COc1cc(O)c2c(O)c3c(c4c2c1[C@]1(C4)C(C)=CCCC1(C)C)[C@H](O)[C@@]1(O)CC(=O)C(C(N)=O)=C(O)[C@@]1(O)C3=O ... 47 % of control
COC1=NCN=C2SC=C(N)N=C12 ... 208 % of control
CC1(C)N=C(N)N=C(N)N1c1ccc(F)c(C(F)(F)F)c1 ... 97 % of control
CCC1CN2C(=N1)c1ccccc1-c1cc(Cl)ccc12 (stereo not given) ... 42 % of control

Value (T/C, CD8F1 mice, subcutaneous mammary adenocarcinoma, T/C%) for record `CCCCCCCCCCCCCCCCP(=O)(OCCOCCCCCC)OCCOCCCCCC` = 156 % of control
